Molecular target: full length human TLR3 (human)
Experiment: cell-based or functional assay
Assay endpoint: % inhibition of poly(I:C)-induced NF-κB luciferase reporter

INSERT INTO results (binder, meas_value) VALUES
  ('mAb 14 (antibody, V domains shown) VH: QVELVQSGAEVKKPGESLKISCKGSGYSFTNYWVGWVRQMPGKGLEWMGFIDPSDSYTNYAPSFQGQVTISADKSISTAYLQWSSLKASDTAMYYCARELYQGYMDTFDSWGQGTLVTVSS VL: DIQMTQSPSSLSASVGDRVTITCRASQSIGLYLAWYQQKPGKAPKLLIYAASSLQSGVPSRFSGSGSGTDFTLTISSLQPEDFATYYCQQAETVSPTFGQGTKVEIKR', '> 50%'),
  ('mAb 6 (antibody, V domains shown) VH: QVELQQSGPGLVKPSQTLSLTCAISGDSVSTRSAAWGWIRQSPGRGLEWLGRIYMRSKWYNDYAVSVKSRITINPDTSKNQFSLQLNSVTPEDTAVYYCARHTYPYLSFDVWGQGTLVTVSS VL: DIELTQPPSVSVAPGQTARISCSGDALGGYFVSWYQQKPGQAPVLVIYDDDNRPSGIPERFSGSNSGNTATLTISGTQAEDEADYYCGSYDSNSLTVFGGGTKLTVL', '> 50%'),
  ('mAb 4 (antibody, V domains shown) VH: QVELQQSGPGLVKPSQTLSLTCAISGDSVSTRSAAWGWIRQSPGRGLEWLGKISYRSRWYNDYAVSVKSRITINPDTSKNQFSLQLNSVTPEDTAVYYCARHTYPYLSFDVWGQGTLVTVSS VL: DIELTQPPSVSVAPGQTARISCSGDALGGYFVSWYQQKPGQAPVLVIYDDDNRPSGIPERFSGSNSGNTATLTISGTQAEDEADYYCASYDGDEFTVFGGGTKLTVL', '> 50%');
